Conditions: 22.0 °C
Measured Property: log10 OH rate constant (cm³/molecule/s)
No unit in the answer, please; the number alone is enough.

Given the compound `C=C=C` , what is its reported log10 OH rate constant (cm³/molecule/s)? -11

----------
Conditions: 23.0 °C
Measured Property: log10 OH rate constant (cm³/molecule/s)
No unit in the answer, please; the number alone is enough.

Given the molecule `COC(C)=O` , what is its reported log10 OH rate constant (cm³/molecule/s)? -12.5

Given the molecule `c1ncncn1` , what is its reported log10 OH rate constant (cm³/molecule/s)? -12.8

----------
Provide the recorded log10 OH rate constant (cm³/molecule/s) for the entries that follow.
Conditions: 25.0 °C

Given the compound `CC(=O)CC(C)=O` , what is its reported log10 OH rate constant (cm³/molecule/s)? -11.9

Given the compound `C=C` , what is its reported log10 OH rate constant (cm³/molecule/s)? -11.1

Given the compound `Cc1ccccc1[N+](=O)[O-]` , what is its reported log10 OH rate constant (cm³/molecule/s)? -12.2

Given the compound `OCc1ccccc1` , what is its reported log10 OH rate constant (cm³/molecule/s)? -10.6

Given the compound `C=CBr` , what is its reported log10 OH rate constant (cm³/molecule/s)? -11.2

Given the compound `CC(C)(C)S` , what is its reported log10 OH rate constant (cm³/molecule/s)? -10.5

Given the compound `C1CCCC1` , what is its reported log10 OH rate constant (cm³/molecule/s)? -11.3

Given the compound `CCSCC` , what is its reported log10 OH rate constant (cm³/molecule/s)? -10.8

Given the compound `CCOC=O` , what is its reported log10 OH rate constant (cm³/molecule/s)? -12

Given the compound `c1ccc2c(c1)CCC2` , what is its reported log10 OH rate constant (cm³/molecule/s)? -11

Given the compound `C#C` , what is its reported log10 OH rate constant (cm³/molecule/s)? -12.1

Given the compound `CCc1ccccc1C` , what is its reported log10 OH rate constant (cm³/molecule/s)? -10.9

Given the compound `CC(=O)C(F)(F)F` , what is its reported log10 OH rate constant (cm³/molecule/s)? -13.8

Given the compound `Cc1cccc(C)c1` , what is its reported log10 OH rate constant (cm³/molecule/s)? -10.6

Given the compound `OC1CCCC1` , what is its reported log10 OH rate constant (cm³/molecule/s)? -11

Given the compound `C=CCC=C` , what is its reported log10 OH rate constant (cm³/molecule/s)? -10.3

Given the compound `C=C=C(C)C` , what is its reported log10 OH rate constant (cm³/molecule/s)? -10.2

Given the compound `C=CCCl` , what is its reported log10 OH rate constant (cm³/molecule/s)? -10.8

Given the compound `Cc1cccc(C)c1C` , what is its reported log10 OH rate constant (cm³/molecule/s)? -10.5

Given the compound `CCC(C)(C)C` , what is its reported log10 OH rate constant (cm³/molecule/s)? -11.6

Given the compound `CC(=O)c1ccccc1` , what is its reported log10 OH rate constant (cm³/molecule/s)? -11.6

Given the compound `CC=Cc1ccccc1` , what is its reported log10 OH rate constant (cm³/molecule/s)? -10.2

Given the compound `C#CC#C` , what is its reported log10 OH rate constant (cm³/molecule/s)? -10.7

Given the compound CCCCC(C)O (centres undefined) , what is its reported log10 OH rate constant (cm³/molecule/s)? -10.9

Given the compound `CCCc1ccccc1` , what is its reported log10 OH rate constant (cm³/molecule/s)? -11.2

Given the compound `Ic1ccccc1` , what is its reported log10 OH rate constant (cm³/molecule/s)? -12

Given the compound `CC(C)C1CC1` , what is its reported log10 OH rate constant (cm³/molecule/s)? -11.5

Given the compound CC(C)C(C)O (centres undefined) , what is its reported log10 OH rate constant (cm³/molecule/s)? -10.9

Given the compound `C=C(CCl)CCl` , what is its reported log10 OH rate constant (cm³/molecule/s)? -10.5

Given the compound CCC(C)OC(C)=O (centres undefined) , what is its reported log10 OH rate constant (cm³/molecule/s)? -11.3

Given the compound `CC(C)(C)O` , what is its reported log10 OH rate constant (cm³/molecule/s)? -12

Given the compound `Clc1ccccc1Cl` , what is its reported log10 OH rate constant (cm³/molecule/s)? -12.4

Given the compound `C=CC(C)=CC` , what is its reported log10 OH rate constant (cm³/molecule/s)? -9.87

Given the compound `COP(N)(=S)OC` , what is its reported log10 OH rate constant (cm³/molecule/s)? -9.61

Given the compound C1CCC2CCCCC2C1 (centres undefined) , what is its reported log10 OH rate constant (cm³/molecule/s)? -10.7

Given the compound `C1CCCCCC1` , what is its reported log10 OH rate constant (cm³/molecule/s)? -10.9

Given the compound `FC(F)Cl` , what is its reported log10 OH rate constant (cm³/molecule/s)? -14.3

Given the compound `CC#CC` , what is its reported log10 OH rate constant (cm³/molecule/s)? -10.6

Given the compound `O=[N+]([O-])c1cccc2ccccc12` , what is its reported log10 OH rate constant (cm³/molecule/s)? -11.3

Given the compound `Clc1ccccc1` , what is its reported log10 OH rate constant (cm³/molecule/s)? -12.1

Given the compound `c1ccncc1` , what is its reported log10 OH rate constant (cm³/molecule/s)? -12.4

Given the compound `O=CC=O` , what is its reported log10 OH rate constant (cm³/molecule/s)? -10.9

Given the compound `Clc1cccc(Cl)c1` , what is its reported log10 OH rate constant (cm³/molecule/s)? -12.1

Given the compound `CCO` , what is its reported log10 OH rate constant (cm³/molecule/s)? -11.5
